target-or-test-system: T1, human somatostatin receptor subtype 3 (human, UniProt P32745 1-418)
T1 construct: whole, on cells; Membrane preparations of transfected CHO-K1 cells; also called SSTR3; SSTR-3
T1 sequence (P32745 whole entry): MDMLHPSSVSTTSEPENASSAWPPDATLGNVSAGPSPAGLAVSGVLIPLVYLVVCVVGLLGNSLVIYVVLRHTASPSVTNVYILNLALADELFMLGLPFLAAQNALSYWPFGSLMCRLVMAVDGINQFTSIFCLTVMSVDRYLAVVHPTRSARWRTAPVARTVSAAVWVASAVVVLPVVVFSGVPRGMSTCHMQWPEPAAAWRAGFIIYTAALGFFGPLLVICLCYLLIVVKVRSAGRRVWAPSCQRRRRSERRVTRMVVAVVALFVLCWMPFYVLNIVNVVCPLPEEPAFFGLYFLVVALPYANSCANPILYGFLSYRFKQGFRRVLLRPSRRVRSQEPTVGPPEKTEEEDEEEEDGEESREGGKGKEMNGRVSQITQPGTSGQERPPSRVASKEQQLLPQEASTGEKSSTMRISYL
test-method-notes: radioligand displacement, CHO-K1 membranes expressing human SSTR3; competitor [125I-Tyr11]SS-14
Where no end group is shown, it is not given here. [ ]: non-standard residue; d: D form.
property: IC50 (nM)
Note: unit nM is implicit; provide only the numeric part.

binder	unit-info	IC50
XCYXKVCT (not fully specified; D-Nal at position 1; D-Trp at position 4; cyclo (disulfide) Cys2-Cys7; C-terminal amide, also called SSTR2 preferential agonist) [Compound 1: D-Nal-cyclo[Cys-Tyr-D-Trp-Lys-Val-Cys]-Thr-NH2]	nM	98

Consider the record given below.
Q: Identify measured IC50 corresponding to [dF]FW[dW]KTFT-NH2 (also called SSTR5 preferential agonist; SSTR5 selective agonist) [Compound 5: D-Phe-Phe-Trp-D-Trp-Lys-Thr-Phe-Thr-NH2]
Ans: 1000
